# TARGET OR TEST SYSTEM: XIAP (Homo sapiens, UniProt P98170)
# Sequence (P98170 246-497 limits assumed): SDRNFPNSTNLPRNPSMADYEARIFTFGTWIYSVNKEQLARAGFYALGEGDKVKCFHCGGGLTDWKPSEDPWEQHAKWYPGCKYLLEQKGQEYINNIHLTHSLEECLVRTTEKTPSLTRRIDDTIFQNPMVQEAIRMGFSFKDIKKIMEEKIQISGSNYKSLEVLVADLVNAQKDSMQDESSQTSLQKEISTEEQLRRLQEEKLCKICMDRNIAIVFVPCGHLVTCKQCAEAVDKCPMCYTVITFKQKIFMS
PROPERTY: Ki

// worked examples, Ki included
CN[C@@H](C)C(=O)N[C@H](C(=O)N1CCC[C@H]1CN(CCc1ccccc1)C(=O)c1c[nH]cn1)C(C)(C)C :: < 0.25 µM
CN[C@@H](C)C(=O)N[C@H](C(=O)N1CCC[C@H]1CN(CCc1ccc(F)cc1)C(=O)c1cn2ccccc2n1)C1CCCCC1 :: < 0.25 µM

# next molecule below
What Ki value was documented for this molecule, CN[C@@H](C)C(=O)N[C@H](C(=O)N1CCC[C@H]1CN(CCc1ccc(F)cc1)C(=O)c1nccn1C)[C@@H](C)OC ?
< 1 µM
